This collection of values is drawn from patent US7064139B2.

Listing of recorded EC50 (ug/ml) HIV-2 by entry.
tested on: HIV-2 (ROD); experiment: Inhibition of HIV-2 syncytium formation in CEM cells; format: cell-based; conditions: CEM cells, syncytium formation, day four post infection

Answered cases to consult:
                           structure_string      endpoint_label  assay_value
0  Cc1ccc(C)c(CS(=O)(=O)c2cccc[n+]2[O-])c1C  EC50 (ug/ml) HIV-2    4.7 µg/mL
1   O=S(=O)(Cc1ccc2ccccc2c1)c1cccc[n+]1[O-]  EC50 (ug/ml) HIV-2    4.1 µg/mL
2      CCOc1ccccc1CS(=O)(=O)c1cccc[n+]1[O-]  EC50 (ug/ml) HIV-2   16.0 µg/mL

We next turn to a different compound, shown below.
Given the entry `Cc1ccc(C)c(CS(=O)(=O)c2ccccn2)c1` , what EC50 (ug/ml) HIV-2 was observed with HIV-2 (ROD)? 20.0 µg/mL

---

system: Davis strain CMV; test: Reduction of CMV-induced cytopathicity in HEL cells; assay type: cell-based, human cytomegalovirus (HCMV); conditions: HEL cells, virus-induced cytopathicity after seven days
Measured Antiviral EC50 (ug/ml) Davis strain CMV, listed per entry.
Give the value, in units of µg/mL, as a plain number.

// below: answered molecules
>>> print(df.to_string())
                                   molecule                           endpoint_label  assay_value
0  Cc1ccccc1C[S+]([O-])c1cccc[n+]1[O-] (stereo not shown) [Compound 90]  Antiviral EC50 (ug/ml) Davis strain CMV         37.0
1  Cc1cccc(CSc2cccc[n+]2C)c1.[Cl-] [Compound 142]  Antiviral EC50 (ug/ml) Davis strain CMV          3.4

// moving on: another record for Antiviral EC50 (ug/ml) Davis strain CMV
Give its Antiviral EC50 (ug/ml) Davis strain CMV value. Item: CC(C)c1ccc(CS(=O)(=O)c2cccc[n+]2[O-])cc1 [Compound 58] 5.0

---

Tested on: HIV-2 (ROD)
Experiment: Inhibition of HIV-2 syncytium formation in CEM cells
Assay type: cell-based
Settings: protection of CEM cells against virus-induced cytopathicity at the concentration in the previous column
Text: The cell type used to determine activity of the compounds of the invention herein, i.e., the test compounds, against HIV was human T-lymphoblast (CEM) cells obtained from the American Tissue Cell Culture Collection (Rockville, Md.). HIV-1 (IIIB) was originally obtained from the culture of persistently HIV-1 infected H9 cells and was provided by R. C. Gallo and M. Popovic (National Cancer Institute, National Institutes of Health, Bethesda, Md.). […]
ENDPOINT LABEL: HIV-2 % Protection (%)
Report the value in % with no unit label.

Solved entries:
>>> print(df.to_string())
                                   compound      endpoint_label  assay_value
0  [O-][n+]1cccc(Cl)c1[S+]([O-])Cc1ccccc1 (stereo not drawn)  HIV-2 % Protection          0.0
1  Cc1ccc[n+]([O-])c1S(=O)(=O)Cc1c(Cl)cccc1Cl  HIV-2 % Protection          0.0
2  Cc1ccc[n+]([O-])c1S(=O)(=O)C(C)c1ccccc1 (stereo not drawn)  HIV-2 % Protection          0.0
3  Cc1ccc(C)c(C(Cl)S(=O)(=O)c2cccc(C)[n+]2[O-])c1 (stereo not drawn)  HIV-2 % Protection          0.0
4  Cc1ccc(C)c(C(C)S(=O)(=O)c2c(Cl)ccc[n+]2[O-])c1 (racemic)  HIV-2 % Protection          0.0

Param item = CC(C)c1ccc(C(C)C)c(C[S+]([O-])c2cccc[n+]2[O-])c1 (stereo not drawn) ; retrieve measured HIV-2 % Protection. 37.5

Reported HIV-2 % Protection, compound `COc1ccc(C=C(C#N)Sc2cccc[n+]2[O-])cc1` : ____ 25.0

Data request, read-out HIV-2 % Protection, for `O=[N+]([O-])c1ccc[n+]([O-])c1SCc1ccccc1` 37.5

Find the recorded HIV-2 % Protection belonging to `Cc1ccc[n+]([O-])c1S(=O)(=O)Cc1ccccc1Cl` and report it. 0.0

---

# Antiviral EC50 (ug/ml) Davis strain CMV per entry
tested on: Davis strain CMV; experiment: Reduction of CMV-induced cytopathicity in HEL cells; type: cell-based, human cytomegalovirus (HCMV); conditions: HEL cells, virus-induced cytopathicity after seven days

In [3]: df
Out[3]:
                                   molecule                           endpoint_label  assay_value
0   O=S(=O)(Cc1cccc2ccccc12)c1cccc[n+]1[O-]  Antiviral EC50 (ug/ml) Davis strain CMV     >5 µg/mL
1  [O-][n+]1ccccc1[S+]([O-])Cc1ccc2c(c1)OCO2 (centres unmarked)  Antiviral EC50 (ug/ml) Davis strain CMV    >50 µg/mL
2  O=S(=O)(Cc1ccc2c(c1)OCO2)c1cccc[n+]1[O-]  Antiviral EC50 (ug/ml) Davis strain CMV    >20 µg/mL
3  Cc1ccc2ccccc2c1CS(=O)(=O)c1cccc[n+]1[O-]  Antiviral EC50 (ug/ml) Davis strain CMV    >50 µg/mL

Could you now consider this next molecule?
Give Antiviral EC50 (ug/ml) Davis strain CMV (Davis strain CMV) of the following molecule: COc1ccc(C[S+]([O-])c2cccc[n+]2[O-])cc1 (centres unmarked) 3.8 µg/mL

---

test system: HIV-1 (IIIB); test: microbe, parasite or virus in culture; assay type: cell-based; settings: protection of CEM cells against virus-induced cytopathicity at the concentration in the previous column
Entries and their HIV-1 % Protection values follow.
State just the number; it will be interpreted in %.

                                   molecule  subject_of_test  unit_abbrev  assay_value
0  CC(c1ccccc1)[S+]([O-])c1cccc[n+]1[O-] (stereo not shown) [Compound 102]     HIV-1 (IIIB)            %          0.0
1  Cc1ccc(C)c(C[S+]([O-])c2cccc[n+]2[O-])c1C (stereo not shown) [Compound 97]     HIV-1 (IIIB)            %          0.0
2  COc1ccc(C[S+]([O-])c2cccc[n+]2[O-])cc1 (stereo not shown) [Compound 86]     HIV-1 (IIIB)            %          0.0
3  COc1cc(CS(=O)(=O)c2cccc[n+]2[O-])cc(OC)c1OC [Compound 50]     HIV-1 (IIIB)            %         37.5
4  [O-][n+]1ccccc1[S+]([O-])Cc1ccc(F)cc1 (stereo not shown) [Compound 92]     HIV-1 (IIIB)            %         37.5

Look up HIV-1 % Protection: Cc1ccc[n+]([O-])c1SCc1c(Cl)cccc1Cl [Compound 137] 0.0

Name the recorded HIV-1 % Protection for Cc1ccc(C)c(C(Cl)S(=O)(=O)c2c(Cl)ccc[n+]2[O-])c1 (stereo not shown) [Compound 125] . 0.0

Sample O=S(=O)(c1ccc(Cl)c[n+]1[O-])C(Cl)c1ccccc1 (stereo not shown) [Compound 114] — what was its HIV-1 % Protection? 0.0

State the recorded HIV-1 % Protection for this entry: COc1ccc(CSc2cc(CC(C)C)cc[n+]2[O-])cc1 [Compound 134] 0.0

// HIV-1 % Protection lookup, key: COc1ccc(C=C(C#N)Sc2cccc[n+]2[O-])cc1 [Compound 159] 0.0

---

Documented EC50 across a set of compounds
system: HIV-1 (IIIB); experiment: microbe, parasite or virus in culture; type: cell-based; details: Human immunodeficiency virus 1, IIIB, CCRF-CEM; CEM cells, syncytium formation, day four post infection; read-out: EC50 (ug/ml) HIV-1
The reply should contain only the number, in µg/mL.

In [3]: df
Out[3]:
                                   compound  assay_value
0  Cc1ccc(C)c(C(Cl)S(=O)(=O)c2cc(C)cc[n+]2[O-])c1 (stereo not drawn)         0.42
1  Cc1ccc(C)c(C(Cl)S(=O)(=O)c2ccccn2)c1 (stereo not drawn)          0.9
2  O=S(=O)(Cc1ccccc1)c1cccc[n+]1[O-] [Compound 6, 2-(Benzylsulfonyl)-pyridine-N-oxide]          4.4
3  Cc1ccc(C)c(CS(=O)(=O)c2c(C)ccc[n+]2[O-])c1         0.14
4  O=[N+]([O-])c1cc(CS(=O)(=O)c2cccc[n+]2[O-])ccc1Cl          1.5
5   Cc1ccc(C)c(CS(=O)(=O)c2cccc[n+]2[O-])c1          1.8
6  Cc1ccc(C)c(C(C)S(=O)(=O)c2cc(C)cc[n+]2[O-])c1 (stereo not drawn)         0.75
7  Oc1cccnc1SCc1ccccc1 [Compound 140, 2-[(Phenylmethyl)thio]-3-pyridinol]            2
8  Cc1cc(C)c(C[S+]([O-])c2cccc[n+]2[O-])c(C)c1 (stereo not drawn)          1.5
9  O=S(=O)(Cc1ccc(Cl)c(Cl)c1)c1cccc[n+]1[O-]            1

Reported EC50, compound Cc1ccc(C)c(C(C)S(=O)(=O)c2c(C)ccc[n+]2[O-])c1 (stereo not drawn) : ____ 0.05

What measured EC50 goes with `O=S(=O)(Cc1c(Cl)c(Cl)c(Cl)c(Cl)c1Cl)c1cccc[n+]1[O-]` ? 0.63

Looking for the measured EC50 of [O-][n+]1ccccc1[S+]([O-])Cc1ccccc1 (stereo not drawn) [Compound 5, 2-(Benzylsulfinyl)-pyridine-N-oxide] , can you help? 3.4
